system: Candida tropicalis; test: Fungicidal activity against Candida tropicalis cgmcc2.1975 incubated for 48 hrs followed by replating on YM agar plate and measured after 48 hrs; format: functional
assay-endpoint: MFC<=99.9 (µM)
Kindly answer with a numeric value in µM, unit omitted.

H-AARRILRWIFR-NH2: 4

Ask | Which value of MFC<=99.9 has been reported for H-AARIILRGRFR-NH2 in the records?
Reply | 32

---

Listing of entries alongside the reported MIC95.
test system: Escherichia coli; assay: Antibacterial activity against Escherichia coli ATCC 25922 measured after 18 to 24 hrs in presence of NaCl; type: functional
Kindly answer with a numeric value in µM, unit omitted.

The examples below pair each entry with its known result.
H-AARIILRGRFR-NH2: 64
H-AARIILRRRFR-NH2: 128
H-AARIILRWFRR-NH2: 8
H-AARIILRPRFR-NH2: 128
H-AARIILRFRFR-NH2: 64

Okay, next one:
Ask | Which value of MIC95 has been reported for H-AARIILRNRFR-NH2 in the records?
Reply | 128
